assay: Ratio of drug level in S180 tumor to blood in KM mouse at 240 to 370 kBq, iv after 30mins; assay type: ADME, organism-based; conditions: tumour, 0.5 h
Answer each item with its documented tumor/blood ratio.
Output: the number by itself.

If you can, please state the reported tumor/blood ratio value of CC(C)[C@H](NC(=O)c1ccc([N+](=O)[O-])cc1[18F])C(=O)O . 2.32

If you can, please state the reported tumor/blood ratio value of COC(=O)[C@@H](NC(=O)c1ccc([N+](=O)[O-])cc1[18F])C(C)C . 2.91

----------
Answer each item with its documented tumor/blood ratio.
experiment: Ratio of drug level in S180 tumor to blood in KM mouse at 240 to 370 kBq, iv after 5mins; type: ADME, organism-based; details: tumour
Output: the number by itself.

If you can, please state the reported tumor/blood ratio value of COC(=O)[C@@H](NC(=O)c1ccc([N+](=O)[O-])cc1[18F])C(C)C . 0.9

If you can, please state the reported tumor/blood ratio value of OC[C@H]1O[C@@H](O)[C@H]([18F])[C@@H](O)[C@@H]1O . 1.17

If you can, please state the reported tumor/blood ratio value of CC(C)[C@H](NC(=O)c1ccc([N+](=O)[O-])cc1[18F])C(=O)O . 0.56
